system: Saccharomyces cerevisiae; experiment: protein stability index of tFT-peptide fusion (C-terminal peptide) (PSI (0-1 scale)); higher = more stable (slower turnover); conditions: genetic background: das1 deletion; temperature: 30 C;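 note: PSI is a weighted mean of sequencing reads over stability bins, variants kept only with over 10 reads, mCherry proximal and sfGFP distal, peptide attached via GGGS linker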
Please mark label 1 if the recorded protein stability index is equal to or greater than 0.4, and label 0 if it falls below.

Input: // inclusive: protein stability index at least 0.4? input: WAFVVCGAVFFW
Output: label 0

Input: // inclusive: protein stability index at least 0.4? input: NMRYRATIEACA
Output: label 0

Input: // inclusive: protein stability index at least 0.4? input: CIFLLMAILSLA
Output: label 0

Input: // inclusive: protein stability index at least 0.4? input: RIRRVMHLYTNN
Output: label 1

Input: // inclusive: protein stability index at least 0.4? input: FLPGEAVFVYCR
Output: label 0

Input: // inclusive: protein stability index at least 0.4? input: WLKLWSYVTHLG
Output: label 1

Input: // inclusive: protein stability index at least 0.4? input: RLVVSRNFYRLC
Output: label 1

Input: // inclusive: protein stability index at least 0.4? input: LDRLTTWTLIVR
Output: label 0

Input: // inclusive: protein stability index at least 0.4? input: LSFFFWFIFSLC
Output: label 1
